- Assayed system: CCR-3 (Homo sapiens)
- Sequence (P51677 whole entry): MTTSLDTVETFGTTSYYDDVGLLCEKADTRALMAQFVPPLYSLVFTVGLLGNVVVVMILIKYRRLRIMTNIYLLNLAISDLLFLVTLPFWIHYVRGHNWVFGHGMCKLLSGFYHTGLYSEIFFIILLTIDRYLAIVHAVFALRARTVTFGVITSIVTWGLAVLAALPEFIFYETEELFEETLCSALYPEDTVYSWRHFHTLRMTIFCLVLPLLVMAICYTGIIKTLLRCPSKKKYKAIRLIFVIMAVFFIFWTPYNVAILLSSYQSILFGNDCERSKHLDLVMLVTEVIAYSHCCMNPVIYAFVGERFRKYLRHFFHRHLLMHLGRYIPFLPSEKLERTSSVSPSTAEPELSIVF
- Protocol description: Calcium mobilization assay (inhibition of eotaxin-induced intracellular calcium mobilization in CCR3/HEK293 cells)
- Assay type: cell-based
- Design: expressed in transfected cells
- Cond: 6.25 µg/ml test compound; eotaxin 10 nM; CCR3/HEK293 cells (Table 2a)
Test readout: Ca^2+ mobilization 6.25 µg/ml (inhibition %)

INSERT INTO results (compound, quantity_unit, observed_value) VALUES
  ('O=C(NCCCN(Cc1ccc2c(c1)OCO2)C[C@@H]1CCCN1)Nc1ccccc1-c1ccccc1 [Compound 102]', '%', 63),
  ('CCOC(=O)C1CC1CN(CCCNC(=O)Nc1cccc(Cl)c1)C1CCCc2ccccc21 (stereo not shown) [Compound 149]', '%', 56),
  ('O=C(NCCCN(Cc1ccc2c(c1)OCO2)C[C@@H]1CCCN1)Nc1ccc(Br)cc1 [Compound 128]', '%', 55),
  ('COc1cc(CN(CCCNC(=O)Nc2ccccc2-c2ccccc2)CCCSC)cc(OC)c1OC [Compound 103]', '%', 53),
  ('O=C(NCCCN(C[C@@H]1CCCN1)C1CCCc2ccccc21)Nc1cccc(Cl)c1 (stereo partly shown) [Compound 150]', '%', 70),
  ('CSCCCN(CCCNC(=O)Nc1cccc(C)c1)CCc1ccc(Cl)c(Cl)c1 [Compound 142]', '%', 58),
  ('CCOC(=O)C1CC1CN(CCCNC(=O)Nc1ccccc1-c1ccccc1)CCc1ccc(OC)c(OC)c1 (stereo not shown) [Compound 109]', '%', 51);
